Cited source: PubChem BioAssay (NCI)

- Test system: MALME-3M melanoma
- Protocol notes: NCI-60 one-dose screen, 48 h
- Condition: 10 µM unless noted
About 83,000 compounds went through this panel and 20% of them were active in at least one assay; those are over-represented in the sample as a whole. Activity calls are given as the source filed them. How the source made its calls: active means growth percent below 10; inactive means the rest.
Result category, one only: 1 (yes) (active), 0 (no) (inactive)

Ask: Answer briefly: the call reported for Cn1cc(-c2csc(-c3c[nH]c4ccccc34)n2)c2ccnc(Cl)c21 in this assay.
Reply: 0 (no)

Ask: Answer briefly: the call reported for COc1ccc(/C=N/NC(=O)c2cnn3c2NC(c2ccccc2)C3)cc1OC (stereo not given) in this assay.
Reply: 0 (no)

Ask: Answer briefly: the call reported for COc1cc2c(-c3cc4c(cc3CNCCc3ccc5c(c3)OCO5)OCO4)cccc2c(OC)c1O in this assay.
Reply: 0 (no)

Ask: Answer briefly: the call reported for COc1ccc(NC(N)=NCCCOc2ccc(F)cc2)cc1 in this assay.
Reply: 0 (no)

Ask: Answer briefly: the call reported for CC(C)(C)CC(C)(C)n1nnnc1C(NC12CC3CC(CC(C3)C1)C2)c1ccccc1 (stereo not given) in this assay.
Reply: 0 (no)

Ask: Answer briefly: the call reported for COc1ccc(C(=O)NNc2nc(Cl)nc(N3CCN(C(c4ccccc4)c4ccccc4)CC3)n2)cc1 in this assay.
Reply: 0 (no)

Ask: Answer briefly: the call reported for COc1cc(/C=N/NC(=O)c2cnn3c2NC(c2ccccc2)C3)ccc1OCc1ccccc1 (stereo not given) in this assay.
Reply: 1 (yes)

Ask: Answer briefly: the call reported for O=C(/C=C/c1ccc[nH]1)c1ccc(-n2ccc(C(F)(F)F)n2)c(F)c1 in this assay.
Reply: 0 (no)

Ask: Answer briefly: the call reported for O=C1OC(Cc2ccccc2)C1c1ccccc1 (stereo not given) in this assay.
Reply: 0 (no)

Ask: Answer briefly: the call reported for O=C1c2ccccc2C(=O)c2c([N+](=O)[O-])ccc(Cl)c21 in this assay.
Reply: 0 (no)

---

- Test system: M14 melanoma
- Protocol notes: NCI-60 one-dose screen, 48 h
- Condition: 10 µM unless noted
Compounds without any hit were thinned out: in the full panel of roughly 83,000, 20% have a hit. Activity calls are given as the source filed them. The calls were made as follows: active = growth percent below 10; inactive = the rest.
Result category, one only: yes (1) = active, no (0) = inactive

Ask: Answer briefly: the call reported for COc1cc2nc(-c3ccc(Cl)cc3)cc(OCCCN3CCOCC3)c2cc1OC in this assay.
Reply: yes (1)

Ask: Answer briefly: the call reported for Cc1ccc(CNc2c3ccccc3nc3cc(NC(=O)CCN4CCCC4)ccc23)cc1 in this assay.
Reply: yes (1)

Ask: Answer briefly: the call reported for Cc1cc2nc3c4cccc(O)c4n(CCN(C)C)c3nc2cc1C in this assay.
Reply: no (0)

Ask: Answer briefly: the call reported for C=C1C(=O)O[C@H]2[C@H]1CC/C(CNC(=O)/C=C/c1ccccc1)=C\CC[C@@]1(C)O[C@@H]21 in this assay.
Reply: yes (1)

Ask: Answer briefly: the call reported for NC(=NCCCOc1ccc(F)cc1)Nc1ccc(Cl)cc1 in this assay.
Reply: no (0)

Ask: Answer briefly: the call reported for O=C(/C(=C\c1ccc([N+](=O)[O-])cc1)S(=O)Cc1ccc(Cl)cc1)c1ccc(Cl)cc1 (stereo not given) in this assay.
Reply: no (0)

Ask: Answer briefly: the call reported for CCOC(=O)C1=C(C)NC(SCc2cc(=O)oc3ccc(F)cc23)=N[C@@H]1c1cccc2ccccc12 in this assay.
Reply: no (0)

Ask: Answer briefly: the call reported for Nc1c(C(=O)Nc2cccc3cnccc23)sc2nc3c(cc12)CN(Cc1ccccc1)CC3 in this assay.
Reply: no (0)

Ask: Answer briefly: the call reported for O=C(O)c1ccc(NCc2cn(-c3ccc(C(F)(F)F)cc3)nc2-c2ccc(C(=O)O)cc2)cc1 in this assay.
Reply: no (0)

Ask: Answer briefly: the call reported for COc1ccccc1/C(C)=N/NC(=O)CSc1nc2ccccc2c(=O)n1Cc1ccc(S(N)(=O)=O)cc1 in this assay.
Reply: no (0)

Ask: Answer briefly: the call reported for COc1ccc(C(=O)C2C(C#N)C(C#N)C3C=Cc4ccccc4N32)cc1 (stereo not given) in this assay.
Reply: yes (1)

Ask: Answer briefly: the call reported for O=Cc1ccc(-c2cn3ccnc3c(-c3ccc4ncn(Cc5ccccc5)c4c3)n2)cc1 in this assay.
Reply: no (0)

Ask: Answer briefly: the call reported for O=c1ccc(-c2nc(N3CCOCC3)c3ccccc3n2)c[nH]1 in this assay.
Reply: no (0)

Ask: Answer briefly: the call reported for N#C/C(=C\c1cccc(C#N)c1)c1ccccc1 in this assay.
Reply: no (0)

Ask: Answer briefly: the call reported for O=S(=O)(Nc1ccc(-n2cnc3cc(-c4ccc(O)cc4)ccc32)cc1)c1ccccc1 in this assay.
Reply: no (0)

Ask: Answer briefly: the call reported for Cn1c(N2NC(=O)C(N=Nc3ccc(S(N)(=O)=O)cc3)C2=O)nc(-c2ccco2)c(C#N)c1=O (stereo not given) in this assay.
Reply: no (0)

Ask: Answer briefly: the call reported for CC(Sc1nc2ccccc2c(=O)n1CCc1ccc(S(N)(=O)=O)cc1)C(=O)Nc1ccc(Cl)cc1 (stereo not given) in this assay.
Reply: no (0)

Ask: Answer briefly: the call reported for CCOC(=O)[C@@H]1CCCN(S(=O)(=O)c2ccc(S(=O)(=O)N(CC)CC)c(F)c2)C1 in this assay.
Reply: no (0)

Ask: Answer briefly: the call reported for OC(c1cccc(C(F)(F)F)c1)c1cnccc1NC1CCCCC1 (stereo not given) in this assay.
Reply: no (0)

Ask: Answer briefly: the call reported for O=C(Nc1ncc(Cc2cc(Cl)ccc2Cl)s1)c1cccs1 in this assay.
Reply: no (0)

---

- System: BT-549 breast
- Protocol notes: NCI-60 one-dose screen, 48 h (100 = growth as untreated, 0 = no growth, -100 = all killed)
- Condition: 10 µM unless noted
This is part of a sample that, as a whole, favours compounds with a hit. Of some 83,000 tested, about 20% had one in any assay.
What growth was measured for each of the following?
Value expressed in %; do not type the unit.

Ask: # return recorded growth for input CCCCNC(=O)Oc1ccc(/C(=C(\C)c2ccccc2)c2ccc(OCCN3CCCCC3)cc2)cc1
Reply: 62

Ask: # return recorded growth for input COCc1cnccc1NC1CCCCCC1
Reply: 119

Ask: # return recorded growth for input COc1cc2nc(-c3ccc(Cl)cc3)cc(OCCCN3CCC(O)CC3)c2cc1OC
Reply: 34.9

Ask: # return recorded growth for input Cn1cc(-c2nc(-c3c[nH]c4c(Cl)nccc34)cs2)c2cc(Br)ccc21
Reply: 95.7

Ask: # return recorded growth for input O=C1CC(=O)OC(c2ccc([N+](=O)[O-])cc2)O1
Reply: 51.4

Ask: # return recorded growth for input O=C(CCN1CCCC1)Nc1ccc2c(NCCCc3ccccc3)c3ccccc3nc2c1
Reply: 47.7

Ask: # return recorded growth for input CCNC(=O)Oc1ccc(/C(=C(\C)c2ccccc2)c2ccc(OCCN(CC)CC)cc2)cc1
Reply: 76.1

Ask: # return recorded growth for input COc1cc2nc(-c3ccc(Cl)cc3)cc(OCCCN3CCOCC3)c2cc1OC
Reply: 44.9

Ask: # return recorded growth for input COc1ccc(C(C)=O)c(OC)c1
Reply: 106

Ask: # return recorded growth for input CCN1C(=O)N(CC)C2Nn3c(s/c(=C\c4ccc(OC)cc4)c3=O)=NC21 (stereo unspecified)
Reply: 62.9

Ask: # return recorded growth for input CC(c1ccccc1)C(C(=O)c1ccccc1)c1ccccc1 (stereo unspecified)
Reply: 101

---

- Tested on: SN12C renal
- Protocol notes: NCI-60 one-dose screen, 48 h (100 = growth as untreated, 0 = no growth, -100 = all killed)
- Condition: 10 µM unless noted
This is part of a sample that, as a whole, favours compounds with a hit. Of some 83,000 tested, about 20% had one in any assay.
Assay readout: growth (%)
Value expressed in %; do not type the unit.

Ask: # return recorded growth for input CCN(Cc1ccccc1)c1ccc(C=O)cc1
Reply: 96.7

Ask: # return recorded growth for input Brc1ccc2[nH]cc(-c3cncn3CCc3ccccc3)c2c1
Reply: 59.1

Ask: # return recorded growth for input CCOC(=O)c1cc(C(=O)c2ccc(OC)cc2)n2ccc(/C=C/c3cc[n+](CC(=O)c4ccc(OC)cc4)cc3)cc12
Reply: 56.2

Ask: # return recorded growth for input COc1ccc(/C=C/c2nc(Nc3ccc(S(=O)(=O)Nc4cc(C)on4)cc3)c3ccccc3n2)cc1
Reply: 82.3

Ask: # return recorded growth for input COc1ccc2c(c1)oc1c(C)c3c(c(C)c12)C(=O)N(CCN1CCOCC1)C3=O
Reply: 93.2

---

What growth was measured for each of the following?
- System: SK-MEL-28 melanoma
- Protocol notes: NCI-60 one-dose screen, 48 h (100 = growth as untreated, 0 = no growth, -100 = all killed)
- Condition: 10 µM unless noted
Compounds without any hit were thinned out: in the full panel of roughly 83,000, 20% have a hit.
Value expressed in %; do not type the unit.

Ask: # return recorded growth for input Nc1n[nH]c2cccc(C#Cc3cccc(C(=O)Nc4cccc(C(F)(F)F)c4)c3)c12
Reply: 53.5

Ask: # return recorded growth for input C[C@H](c1nc2ccc(N)cc2[nH]1)[C@H]1CC[C@H]2[C@@H]3CCC4=CC(=O)CC[C@]4(C)[C@H]3CC[C@]12C
Reply: 89.4

Ask: # return recorded growth for input CN1CCN(CCNc2nccc(-c3c(-c4cccc(O)c4)nc4sccn34)n2)S1(=O)=O
Reply: 15

Ask: # return recorded growth for input Cc1ccc(C(=O)/C(=C\c2ccc([N+](=O)[O-])cc2)S(=O)Cc2ccc(F)cc2)cc1 (centres undefined)
Reply: 17.3
